target: Human Prostanoid EP4 Receptor (Homo sapiens); assay: Radioligand binding assay, agonist site of human prostanoid EP4 receptor in transfected HEK-293 cells; settings: read-out: hEP4 receptor binding IC50
Sequence (P35408 whole entry): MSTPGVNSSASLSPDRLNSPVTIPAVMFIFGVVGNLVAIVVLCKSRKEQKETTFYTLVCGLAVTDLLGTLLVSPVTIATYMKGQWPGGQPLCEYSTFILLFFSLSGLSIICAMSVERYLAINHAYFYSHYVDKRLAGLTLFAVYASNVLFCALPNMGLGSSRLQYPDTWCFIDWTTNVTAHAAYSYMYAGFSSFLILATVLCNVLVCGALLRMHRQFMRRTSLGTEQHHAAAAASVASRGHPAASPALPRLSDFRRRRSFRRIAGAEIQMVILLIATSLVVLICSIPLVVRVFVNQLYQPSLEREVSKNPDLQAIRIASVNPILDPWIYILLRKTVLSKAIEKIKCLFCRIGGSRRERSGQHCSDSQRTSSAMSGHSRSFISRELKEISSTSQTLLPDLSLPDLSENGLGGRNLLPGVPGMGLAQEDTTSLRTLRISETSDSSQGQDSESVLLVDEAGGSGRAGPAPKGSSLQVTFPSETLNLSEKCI
pIC50: −log10 of the molar value.
pIC50 vs 8: at or above is condition met, below is condition not met.

The examples below pair each entry with its known result.
CC#CC[C@@H](C)[C@H](O)/C=C/[C@H]1CCC(=O)N1CCCCCCC(=O)O: condition not met
CCC#CCC(C)[C@H](O)/C=C/[C@H]1CCC(=O)N1CCCCCCC(=O)O (mixture of isomers): condition met

hey, is pIC50 for this one >= 8? CCC#CC[C@H](C)[C@H](O)/C=C/[C@H]1CCC(=O)N1CCCCCCC(=O)O condition met

For CCC#CC[C@H](C)[C@H](O)/C=C/[C@H]1CCC(=O)N1CCc1ccc(C(=O)O)cc1 then? condition met

Param item: CC#CCC(C)[C@H](O)/C=C/[C@H]1CCC(=O)N1CCc1ccc(C(=O)O)cc1 (mixture of isomers) condition met

And for CC#CC[C@H](C)[C@H](O)/C=C/[C@H]1CCC(=O)N1CCCCCCC(=O)O ? condition met
